Source: the Human Domainome abundance scans (Beltran et al. 2025)

B1: Mineralocorticoid receptor, residues 600 to 675; numbered along this chain, P08235 (parent)
chain: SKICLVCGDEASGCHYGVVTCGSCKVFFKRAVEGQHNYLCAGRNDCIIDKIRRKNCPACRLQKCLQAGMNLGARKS

- Variants of: B1
- protocol-notes: abundance fitness (aPCA) (normalised: wild type 0, dead -1); higher = more abundant; growth selection in yeast, the domain comes from the species named
- condition-info: Homo sapiens
Would you kindly list abundance fitness for each of these variants?
Give only the figure.

(Q) Name the recorded abundance fitness for K54T .
(A) 0.038

(Q) Name the recorded abundance fitness for Q66P .
(A) -0.697

(Q) Name the recorded abundance fitness for L39S .
(A) -0.05

(Q) Name the recorded abundance fitness for K75S .
(A) 0.065

(Q) Name the recorded abundance fitness for F28M .
(A) -0.101

(Q) Name the recorded abundance fitness for T20C .
(A) -0.062

(Q) Name the recorded abundance fitness for G72H .
(A) 0.032

(Q) Name the recorded abundance fitness for I48L .
(A) -0.077

(Q) Name the recorded abundance fitness for D45F .
(A) -0.163

(Q) Name the recorded abundance fitness for N55F .
(A) -0.093

(Q) Name the recorded abundance fitness for C64E .
(A) -0.851

(Q) Name the recorded abundance fitness for T20A .
(A) -0.072

(Q) Name the recorded abundance fitness for S76M .
(A) -0.084

(Q) Name the recorded abundance fitness for G22A .
(A) -0.013

(Q) Name the recorded abundance fitness for K2G .
(A) -0.163

(Q) Name the recorded abundance fitness for A58W .
(A) -0.102
